Target: wt-CFTR (Homo sapiens, UniProt P13569)
Sequence (P13569 whole entry): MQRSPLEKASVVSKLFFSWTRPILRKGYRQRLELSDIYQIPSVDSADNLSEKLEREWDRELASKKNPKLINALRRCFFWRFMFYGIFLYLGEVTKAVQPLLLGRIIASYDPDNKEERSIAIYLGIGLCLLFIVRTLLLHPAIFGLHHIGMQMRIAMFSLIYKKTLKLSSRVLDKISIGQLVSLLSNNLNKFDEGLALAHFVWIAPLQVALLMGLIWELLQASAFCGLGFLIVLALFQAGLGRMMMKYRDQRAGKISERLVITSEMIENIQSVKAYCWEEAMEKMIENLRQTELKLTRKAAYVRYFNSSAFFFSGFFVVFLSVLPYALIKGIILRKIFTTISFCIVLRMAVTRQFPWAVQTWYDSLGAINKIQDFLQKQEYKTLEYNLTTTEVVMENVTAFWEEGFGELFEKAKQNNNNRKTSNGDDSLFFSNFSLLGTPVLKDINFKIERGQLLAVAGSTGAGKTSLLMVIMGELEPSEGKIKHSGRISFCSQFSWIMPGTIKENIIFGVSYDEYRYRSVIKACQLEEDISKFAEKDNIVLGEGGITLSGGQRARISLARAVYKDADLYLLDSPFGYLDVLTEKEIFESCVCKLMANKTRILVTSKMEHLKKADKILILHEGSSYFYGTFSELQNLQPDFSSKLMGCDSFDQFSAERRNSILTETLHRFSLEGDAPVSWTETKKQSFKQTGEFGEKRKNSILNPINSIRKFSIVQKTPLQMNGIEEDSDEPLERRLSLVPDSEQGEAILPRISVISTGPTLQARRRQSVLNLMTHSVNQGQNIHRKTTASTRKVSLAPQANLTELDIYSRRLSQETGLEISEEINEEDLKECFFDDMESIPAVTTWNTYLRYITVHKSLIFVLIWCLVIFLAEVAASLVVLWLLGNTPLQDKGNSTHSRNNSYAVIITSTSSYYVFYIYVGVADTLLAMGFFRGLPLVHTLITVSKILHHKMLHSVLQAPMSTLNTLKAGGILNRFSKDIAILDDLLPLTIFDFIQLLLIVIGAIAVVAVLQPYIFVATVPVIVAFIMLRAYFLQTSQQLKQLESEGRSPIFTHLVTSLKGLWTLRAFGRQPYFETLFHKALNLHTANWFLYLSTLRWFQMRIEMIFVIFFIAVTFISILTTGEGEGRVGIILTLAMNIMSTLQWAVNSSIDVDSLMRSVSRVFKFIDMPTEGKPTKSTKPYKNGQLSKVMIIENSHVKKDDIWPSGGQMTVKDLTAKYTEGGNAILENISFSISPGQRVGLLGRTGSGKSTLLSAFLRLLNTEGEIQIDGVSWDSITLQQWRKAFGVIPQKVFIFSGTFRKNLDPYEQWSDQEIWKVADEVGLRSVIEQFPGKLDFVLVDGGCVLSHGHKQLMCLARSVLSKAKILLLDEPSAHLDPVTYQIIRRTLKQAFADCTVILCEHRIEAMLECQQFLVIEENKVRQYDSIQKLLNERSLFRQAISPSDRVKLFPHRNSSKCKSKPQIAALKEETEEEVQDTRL
Test: ATPase activity of wt-CFTR
Assay type: biochemical
Parameters: His10-SUMO* (N); FLAG; EGFP (C); made in house; host or cells: HEK 293 cell line D165
Conditions: saturating concentration of nanobody
Procedure: To determine effect of nanobodies on functional stability, aliquots of purified wt-CFTR (25 nM) were preincubated 1 h on ice with 1 μM nanobody (or 15 μM, in the case of G3a). Substrate α-[32P]-ATP (2 μl) was then added for measurement of ATPase activity as previously described^[48]. Then, nanobody protection against thermal denaturation was determined after a 30 min thermal challenge of the protein complexes followed by an assay of residual ATPase.
Metric: ATPase activity

What does the data say about its ATPase activity? Entry: T8: nanobody, SEQ ID NO:7, binds epitope 2 including F508, stabilizes WT CFTR but not F508del (protein, T8 Nanobody amino acid sequence) VHH: QVQLQESGGGLVQPGGSLRLSCAASGSTSSINAMGWYRQAPGKQREPVAISSSGGDTRYAEPVKGRFTISRDNAQNKVYLQMNSLKPEDTAVYYCWLNWGRTSVNSWGQGTQVTVSS
60 % of PKA-phosphorylated CFTR
